# assay remarks: yeast display, Sf9 membrane polyspecificity reagent, FACS + sequencing; frameworks hold sequencing errors

sequence text	polyreactivity (PSR sort gate)
QVQLVESGGGLVQAGGSLRLSCAASGRTFGLYAMRWYIQAPGKERELVAAIRGSAGSTYYADSVKGRFTISRDNAKNTVYLQMNSLKPEDTAVYYCATGGYPSLWYGYGYWGQGTQVTVSS	low polyreactivity
QVQLVESGGGLVQAGGSLRLSCAASGRTFRVYAMGWYRQAPGKERELVAAIRTDDSTNYADSVKGRFTISRDNAKNTVYLQMNSLKPEDTAVYYCNAEGQFTWLGRRRHKFEYWGQGTQVTVSS	low polyreactivity
QVQLVESGGGLVQAGGSLRLSCAASGSIFWVYVMGWYRQAPGKEREFVAAISSSGGRTYYADSVKGRFTISRDNAKNTVYLQMNRLKPEDTAVYYCAARRYWWYSASAMDYWGQGTQVTVSS	high polyreactivity
QVQLVESGGGLVQAGGSLRLSCAASGSIFYSYAMGWYRQAPGKEREFVAAISQLGGSTYYADSVKGRFTISRDNAKNTVYLQMNSLKPEDTAVYSCNAVYRRAQFLYGYDYWGQGTQVTVSS	high polyreactivity
HVQHVESGGGLVQAGGSLRLSCAASGLIFGVNAMGWYRQAPGKERELVATITSGTSTYYADSVKGRFTISRDNAKNTVYLQMNSLKPEDNAVSYCAVRNGDSWYYYWGQGTQVTVSS	low polyreactivity
QVQLVESGGGLVQAGGSLRLSCAASGFIFYYNAMGWYRQAPGKERELVATIRGSGGSTYYADSVKGRFTISRDTAKNTVYLHMNSLKPEDTAVYYCATTIYGLTSRLYYWGQGTQVTVSS	high polyreactivity
QVQLVESGGGLVQAGGSLRLSSAASGSIFYYYAMGWYRQAPGKARELVATINISDGSTYYAVSVKGRFTISRDNAKNTVYLQMNSLKPEDTAVYYCAAYYYFQDYDYWGQGTQVTVSS	low polyreactivity
QVQLVESGGGLVQAGGSLRLSCAASGSTFGGNAMGWYRQAPGKERELVAVISKRGGSTYYADSVKGRFTISRDNAKNTVYLQMNSLKPEDTAVYYCAAGYFIRTRSRYRYDYWGQGTQVTVSS	high polyreactivity
QVQLVESGGGLVQAGGSLRLSCAASGSILGPYAMGWYRQAPGKERELVAAISWGGGSTYYADSVKGRFTISRDNAKNTVYLQMNSLKPEDTAVYYCAADFGYYDYDYWGQGTQVTVSS	low polyreactivity
QVQLVESGGGLVQAGGSLRLSCAASGSTFSPYALGWYRQAPGKERELVAGITSSGGDTYYADSVKGRFTISRDNAKNTVYLQMNSLKPEDTAVYYCAADWWVLGQLWFDYWGQGTQVTVSS	low polyreactivity
QVQIVESGGGLVQAGGSLRLSCSASGSTFPFYAMGWYRQAPGKERELVAAITRSGSRTYYADSVKGRFTISRDNAKNTVFLQMNSLKPEDTAVYYFAASSTDLYFWGQGTQVTVSS	high polyreactivity

----------
# assay remarks: yeast display, Sf9 membrane polyspecificity reagent, FACS + sequencing; frameworks hold sequencing errors

sequence text	polyreactivity (PSR sort gate)
QVQLVESGGGLVQAGGSLRLSCAASGRTFRRYAMGWYRQAPGKERELVAGISRSGVSSYYADSVKGRFTISRDNAKNTVYLQMNSLKPEDTAVYYCATRYVPTLRSSGDYWGQGTQVTVSS	high polyreactivity
QVQLVESGGGLVQAGGSLRLSCAASGSTFKAYVMGWYRQEPAKERELVAVISRSGGTTYYADSVKGRFTISRDNAKNTVYLQMNSLKPEDTAVYYCAAQWRYQYPESLESYYWGQGTQGTVSS	high polyreactivity
QVQLVESGGGLVQAGGSLRLSCAASGITFVHYVMGWYRQAPGKERELVAVITKGGARTSYADSVKGRFTISRDNAKNTVYLQMNSLKPEDTAVYYCAAREVYPLFTKYYYWGQGTQVTVSS	high polyreactivity
QVQLVESGGGLVQAGGSLRLSCAASGLIFILYAMGWYRQAPGKERELVAAISWTGGSTYYADSVKGRFTISRDNAKNTVYLQMNSLKPEDTAVYYCNKVGVRSGARSIYVVRRYEYWGQGTQVTVSS	high polyreactivity
QVQLVESGGGLVQAGGSLRLSCAASGRTFTNYAMRWYIPAPGKERELVAAAITVGGGRTYYADSVKGRFTISRENAKNTVYLQMNSLKPEDTAVYYCATDFGTYWYEYWGQGTQVTVSS	high polyreactivity
QVQLVESGGGLVQAGGSLRLSCAASGSTFRTYAMGWYRQAPGKERELVADITWRGGSTYYADSVKGRFTISRDNAKNTVYLQMNSLKPEDTAGYYCATDRGPEVVLYDYWGQGTQVTVSS	low polyreactivity
QLQLVESGGGLVQAGGSLRLSCAASGLILPYYAMGWYRQAPGKERALVAAISRTGGRTSYADSVKGRFTISRDNAKNTVYLQMNSLKPEDTAVYYCAARYGRYYGYNYWGQGTQVTVSS	high polyreactivity
QVQLVESGGGLVQAGGSLRLSCAASGFTFDPYAMGWYRQAPGKERELVAAISISGGRTYYADSVKGRFTISRDNAKNTVYLQMNSLKPEDTAVYYCAVAQSHYFGGYGYWGQGTQVTVSS	low polyreactivity
QVQLVESGGGLVQAGGSLRLSCAASGGTFLFYGMGWYRQAPGKERELVAVITWSGGSTYYADSVKGRFTISRDNAKNTVYLQMNSLKPEDTAVYYCNAANTGSPDYQSIGYNFNYWGQGTQVTVSS	low polyreactivity
QVHLVESGGGLVQAGGSLRLSCAASASIFRYYAMGRYRQAPGKERELVATISSGGRTYYADSVKGRFTISRDNAKNTVYLQMNSLKPEDPAVYYCAAVRLTWTAKYNYWGQGTQVTVSS	high polyreactivity
QVQLVESGGGLVQAGGSLRLSCAASGRIIYRYAMGWYRQAPGKERELVAAISYRGGSTYYADSVKGRFTISRDNAKNTVYLQMNSLKPEDTAVYYCAADRRYYDWRYGGFDYWGQGTQVTVSS	high polyreactivity
